// provenance: patent US20150368338A1

- experimentalSystem: T1, IFN-α4a (human, UniProt P05014 24-189)
- T1 construct: Recombinant, HEK293; also called IFN-αM1
- experimentDescription: ProteOn SPR, cell supernatant;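 also: each binding measurement used just a single antigen concentration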
Recorded measurements of pKd, one per entry
Please treat pKd as minus the base-10 logarithm of the molar concentration.

Reference set (2 entries):
[
  {
    "binder": "IFWM3407 (antibody, IgG1, V domains shown, mAb; IgG1/kappa said of the parent and of selected mAbs; also called IFWB3142) VH: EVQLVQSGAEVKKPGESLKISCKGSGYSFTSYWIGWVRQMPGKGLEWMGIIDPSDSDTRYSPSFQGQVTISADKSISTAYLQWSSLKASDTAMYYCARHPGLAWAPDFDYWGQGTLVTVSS VL: DIQMTQSPSSLSASVGDRVTITCRASQSIRNNNLNWYQQKPGKAPKLLIHWASSLQSGVPSRFSGSGSGTDFTLTISSLQPEDFATYYCQQGYDTPFTFGQGTKVEIK",
    "pKd": 9.89
  },
  {
    "binder": "IFWM3381 (antibody, IgG1, V domains shown, mAb; IgG1/kappa said of the parent and of selected mAbs; also called IFWB3116) VH: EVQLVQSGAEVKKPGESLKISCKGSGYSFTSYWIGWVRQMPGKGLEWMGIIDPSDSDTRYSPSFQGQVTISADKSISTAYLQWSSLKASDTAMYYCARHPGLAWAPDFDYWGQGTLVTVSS VL: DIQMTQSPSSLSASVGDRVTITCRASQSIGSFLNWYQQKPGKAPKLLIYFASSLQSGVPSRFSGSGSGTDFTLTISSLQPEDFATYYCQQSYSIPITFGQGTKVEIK",
    "pKd": 9.77
  }
]

Next:
**Query** // pKd lookup, key: IFWM3413 (antibody, IgG1, V domains shown, mAb; IgG1/kappa said of the parent and of selected mAbs; also called IFWB3148) VH: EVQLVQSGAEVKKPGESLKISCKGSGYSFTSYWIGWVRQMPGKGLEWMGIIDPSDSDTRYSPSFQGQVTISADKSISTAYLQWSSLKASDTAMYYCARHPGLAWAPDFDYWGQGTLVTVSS VL: DIQMTQSPSSLSASVGDRVTITCRASQSINYLNWYQQKPGKAPKLLIYGASSLQSGVPSRFSGSGSGTDFTLTISSLQPEDFATYYCQQSHDWPITFGQGTKVEIK
**Result** 9.69
